B1: glmS ribozyme (parent)
chain: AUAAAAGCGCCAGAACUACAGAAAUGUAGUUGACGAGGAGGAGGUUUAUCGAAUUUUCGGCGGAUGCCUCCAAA

# Variants of: B1
# procedure_details: KM; higher = weaker cofactor use; RNA array
# settings: with glucosamine-6-phosphate
Form field: KM (one value per entry).
Write down the numeric answer in µM and omit the unit.

variant_id: U54A U56G
u: µM
KM: 1740
--
variant_id: A48C C68U
u: µM
KM: 1310

(Q) Read off the recorded KM for G32U U56C
(A) 2990

(Q) Please list KM recorded for the variant U30G C68U
(A) 3820
